system: B16-F10; test: Inhibition of alpha-MSH-induced melanogenesis in mouse B16F10 cells after 3 days by spectrophotometric analysis; type: functional, cell-based; details: B16-F10, 72 h
measure name: IC50 (nM)

Consider the reported IC50 for these compounds:
O=c1cc(CO)occ1O [KOJIC ACID]
84500
O=C(c1noc2c1CCCCC2)N1CCN(c2ccc(O)cc2)CC1
1010

A: CCOc1ccc(N2CCN(C(=O)c3noc4c3CCCCC4)CC2)cc1
B: COc1ccc(N2CCN(C(=O)c3noc4c3CCCCC4)CC2)cc1
# compare IC50 for A vs B ; return the one with the smaller value Refer to your chosen item by its label in the answer.
B

====

Here, each record is paired with measured inhibition at 1 µM data.
test system: B16-F10; test: Inhibition of alpha-MSH-induced melanogenesis in mouse B16F10 cells at 1 uM after 3 days by spectrophotometric analysis relative to control; format: functional; details: B16-F10, 72 h
Give the value, in units of %, as a plain number.

// inhibition at 1 µM lookup, key: "COc1ccc(N2CCN(C(=O)c3noc4c3CCCCC4)CC2)cc1"
42

Would you kindly repeat that for "O=C(c1noc2c1CCCCC2)N1CCN(c2ncccn2)CC1" ?
11

Now try "O=C(c1noc2c1CCCCC2)N1CCN(c2ccc(O)cc2)CC1" .
47

And "CCCOc1ccc(N2CCN(C(=O)c3noc4c3CCCCC4)CC2)cc1" ?
34

Could you do the same for "CCOc1ccc(N2CCN(C(=O)c3noc4c3CCCCC4)CC2)cc1" , please?
47

Can you handle "CCCc1ccc(N2CCCN(C(=O)c3noc4c3CCCCC4)CC2)cc1" next?
15

What do we get for "CCCc1ccc(N2CCN(C(=O)c3noc4c3CCCCC4)CC2)cc1" ?
21
